system: NCI-H23 lung; assay: NCI tumour cell line growth inhibition, 48 h
assay_metric: TGI (µM)
State the answer as a number, implicitly in µM.

Worked set:
[
  {
    "compound": "OC(COc1cccc2ccccc12)CN1CCN(c2ccccc2)CC1 (centres undefined)",
    "units_label": "µM",
    "value": 31.9
  },
  {
    "compound": "COc1ccc(-c2nn(-c3cccc(NC(=O)Nc4cc(C(F)(F)F)cc(C(F)(F)F)c4)c3)cc2-c2ccncc2)cc1Cl",
    "units_label": "µM",
    "value": 8.22
  },
  {
    "compound": "COc1ccc(/C=C\\c2cc(OC)c(OC)c(OC)c2)cc1OC(=O)c1cccc(Cn2cc(CCOC(=O)c3cccc(Cn4nnc5c4C(=O)c4ccccc4C5=O)c3)nn2)c1",
    "units_label": "µM",
    "value": 18.3
  },
  {
    "compound": "CCOC(=O)c1cc2c([nH]1)C(=O)CC1=C2CCN1Cc1ccccc1",
    "units_label": "µM",
    "value": 29.6
  }
]

API: the following record is the query input.
For NCI-H23 lung, give the measured TGI of the entry CCN(CC)Cc1nc(C2CCC([N+](=O)[O-])O2)no1 (centres undefined)
41.7
